# experimentalDetails: qHTS RealTime-Glo MT Cell Viability Assay in HEK293 cells - 16 hour (AID 1224872); note: nearly all actives have a fitted effect of over 50% in size
# assayContext: RealTime-Glo luminescence; series mostly up to 76.8 µM
Records with an inconclusive call do not appear. Calls of active or inactive are those of the source. Calls come from the whole dose curve; as a rule, active = well fitted cell-killing curve with a large enough effect in the repeat runs; inconclusive = weak or mixed curves, or effect the other way; inactive = flat fitted curve, though single readings scatter.
Classes used: 1.0 for active, 0.0 for inactive

>>> print(df.to_string())
                                    compound  answerlabel
 0  C[C@@H]1C[C@H]2[C@@H]3CCC4=CC(=O)C=C[C@]4(C)[C@@]3(F)[C@@H](O)C[C@]2(C)[C@@]1(O)C(=O)COP(=O)(O)O          0.0
 1                      C=Cc1ccc(OC(C)=O)cc1          0.0
 2                       C=CCOC(=O)COCCC(C)C          0.0
 3  COc1ccc(CCN(C)CCCN2CCc3cc(OC)c(OC)cc3CC2=O)cc1OC          0.0
 4  CC(C)(C)C1(CCc2ccc(Cl)cc2)CO1 (stereo not drawn)          0.0
 5                         CC(=O)C(=O)CC(C)C          0.0
 6                     CCOc1ncc(F)c(=O)[nH]1          0.0
 7          O=C1c2ccccc2C(=O)c2c(O)ccc(O)c21          0.0
 8  CC(CN(CCN(CC(C)OCCO)CC(C)OCCO)CC(C)OCCO)OCCO (stereo not drawn)          1.0
 9                 O=S(=O)(Cl)c1c(Cl)cccc1Cl          0.0
10                             CCC(CO)(CO)CO          0.0
11  CCCCCCC(O)CCCCCCCCCCC(=O)OC (stereo not drawn)          0.0
12  CC(C)(C)C(O)/C=C/c1ccc2c(c1)OCO2 (stereo not drawn)          0.0
13                  O=[N+]([O-])C1(Br)COCOC1          1.0
14                  COc1cc(OC)c2ccc(=O)oc2c1          0.0
15                   CC(C)Cc1ccc(CC(=O)O)cc1          0.0
16                  COC(=O)c1sccc1S(N)(=O)=O          0.0
17      COc1ccc(/C=C/C(=O)c2ccc(OC)cc2OC)cc1          0.0
18                        [Cl][Nd]([Cl])[Cl]          0.0
19  CCCCCCCCCCCC(=O)OCC(O)CO (stereo not drawn)          0.0
20                        CC(C)(O)CCc1ccccc1          0.0
21                  Cc1cc([N+](=O)[O-])ccc1N          0.0
22                 O=C(O)c1cccc(Oc2ccccc2)c1          0.0
23  CN1C(CSCC(F)(F)F)Nc2cc(Cl)c(S(N)(=O)=O)cc2S1(=O)=O (stereo not drawn)          1.0
24     CC(C)c1ccc(C(=O)N=C(N)N)cc1S(C)(=O)=O          0.0
25    CCCCCCC(O)CCOC(C)=O (stereo not drawn)          0.0
26  CNS(=O)(=O)c1cc(C(=O)N2CCC(CCN3C4CCC3CC(n3c(C)nc5ccccc53)C4)(c3cccc(F)c3)CC2)c(Cl)cc1F (stereo not drawn)          1.0
27  COC(=O)C1=C(C)NC(C)=C(C(=O)OC(C)(C)CN(C)CCC(c2ccccc2)c2ccccc2)C1c1cccc([N+](=O)[O-])c1 (stereo not drawn)          0.0
28                                    CCCCCC          0.0
29          CCN(CC)CCNC(=O)c1cc(Cl)c(N)cc1OC          0.0
30  CC(=O)OCC1=C(C(=O)O)N2C(=O)[C@@H](NC(=O)CSc3ccncc3)[C@H]2SC1          0.0
31  CC1=C2[C@@H]([C@H](C)CC[C@H]2/C=C(\C)C(=O)O)[C@H](O)C1          0.0
32                  COc1ccc(-c2cc(=S)ss2)cc1          0.0
33                 O=C(O)CCCc1c[nH]c2ccccc12          0.0
34    CCC1CCC(CCC(=O)O)C1 (stereo not drawn)          0.0
35              Nc1ccc(NC(=O)c2ccc(N)cc2)cc1          0.0
36                   CCC(CO)(CO)[N+](=O)[O-]          0.0
37         Nc1nc(-c2ccc([N+](=O)[O-])cc2)cs1          0.0
38                              Nc1ccc(F)cc1          0.0
39              CC(C)(C(=O)c1cccnc1)c1cccnc1          0.0
40  CC(C)(C)CCCCCCOC(=O)c1ccccc1C(=O)OCCCCCCC(C)(C)C          0.0
41                     CCCCOCCOC(=O)c1cccnc1          0.0
42          C[C@H](CS)C(=O)N1CCC[C@H]1C(=O)O          0.0

* * *

# experimentalDetails: A CellTox Green Cytotoxicity Assay to monitor cytotoxicity in HepG2 cells - 16 hour (AID 1224876); note: nearly all actives have a fitted effect of over 45% in size
# assayContext: CellTox Green fluorescence; series mostly up to 76.8 µM
Records with an inconclusive call do not appear. The source made the active and inactive calls. The call rests on the fitted dose curve; in most records, active means well fitted activation curve with a large enough effect in the repeat runs; inconclusive means weak or mixed curves; inactive means flat fitted curve, though single readings scatter.
Classes used: 1 (yes) (active), 0 (no) (inactive)

compound	answerLabel
CCN(Cc1cccc(S(=O)(=O)O)c1)c1ccc(C(=C2C=CC(=[N+](CC)Cc3cccc(S(=O)(=O)O)c3)C=C2)c2ccccc2S(=O)(=O)[O-])cc1	0 (no)
CCCCCCC(O)CCCCCCCCCCC(=O)OC (stereo unspecified)	0 (no)
CCCc1nc2c(C)cc(-c3nc4ccccc4n3C)cc2n1Cc1ccc(-c2ccccc2C(=O)O)cc1	0 (no)
O=C(Nc1ccc(C(=O)O)c(O)c1)c1ccccc1	0 (no)
CNc1c2c(nn1C)CCCC2	0 (no)
CCCCC(CC)COS(=O)(=O)O (stereo unspecified)	0 (no)
CCCCCCC(O)CCOC(C)=O (stereo unspecified)	0 (no)
CC(C)C1CCC(C(=O)N[C@H](Cc2ccccc2)C(=O)O)CC1 (stereo partly specified)	0 (no)
COc1ccc(-c2cc(C(F)F)nn2-c2ccc(S(N)(=O)=O)cc2)cc1F	0 (no)
Cc1c[nH]c2ccccc12	0 (no)
Nc1ccc(NC(=O)c2ccc(N)cc2)cc1	0 (no)
CCCCCCCCCCCCCCCC(=O)OCC	0 (no)
Cc1ccc(N(CCO)CCO)cc1	0 (no)
C[C@H](CS)C(=O)N1CCC[C@H]1C(=O)O	0 (no)
OCC(CO)n1cnc(-c2ccc(F)cc2)c1-c1ccnc(Oc2ccccc2)n1	0 (no)
CC(=O)OCC(=O)[C@@]1(OC(C)=O)[C@@H](C)C[C@H]2[C@@H]3C[C@H](F)C4=CC(=O)C=C[C@]4(C)[C@@]3(F)[C@@H](O)C[C@@]21C	0 (no)
CC(C)(C)C1(CCc2ccc(Cl)cc2)CO1 (stereo unspecified)	0 (no)
BrC(Br)C(Br)Br	0 (no)
O=C(O)c1cccc(Oc2ccccc2)c1	0 (no)
Cc1ccc2c(c1)CCCN2	0 (no)
O=C(c1ccccc1)C1CCC1	1 (yes)
CCCCOCCOC(=O)c1cccnc1	0 (no)
COc1cc(NS(=O)(=O)c2ccc(N)cc2)nc(C)n1	0 (no)
Oc1cccc2[nH]ccc12	0 (no)
CC12CC3CC(C)(C1)CC(N)(C3)C2	0 (no)
CS(=O)(=O)c1ccc([C@@H](C[C@H]2CCC(=O)C2)C(=O)Nc2cnccn2)cc1Cl	0 (no)
O=CNNC=O	0 (no)
CCOC(=O)N1CCC(Nc2ccc(Cl)cc2N)CC1	0 (no)
COC1CCC=CO1 (stereo unspecified)	0 (no)
CCCC(=O)OC(=O)CCC	0 (no)
CC(=O)OCC(C)C	0 (no)
CC(C)N(C)C	0 (no)
CC(CN(CCN(CC(C)OCCO)CC(C)OCCO)CC(C)OCCO)OCCO (stereo unspecified)	0 (no)
CC1CCCC(=O)C1=O (stereo unspecified)	0 (no)
COC(CC(C)CCCC(C)(C)O)OC (stereo unspecified)	0 (no)
O=C1c2ccccc2C(=O)c2c(O)ccc(O)c21	1 (yes)
CC(=O)OCCC(C)CC(C)(C)C (stereo unspecified)	0 (no)
CN1CCCN(C(c2ccccc2)c2ccc(Cl)cc2)CC1 (stereo unspecified)	1 (yes)
CC(O)Cn1cnc2c1c(=O)n(C)c(=O)n2C (stereo unspecified)	0 (no)
C=CC(=O)NC(C)C	0 (no)
COC(C)(C)OC	0 (no)
C[C@@H]1[C@H](O)[C@@H](C)/C=C/C=C\C=C\C=C\C=C\C=C\C=C\[C@H](O[C@@H]2O[C@H](C)[C@@H](O)[C@H](N)[C@@H]2O)C[C@@H]2O[C@](O)(C[C@@H](O)C[C@@H](O)[C@H](O)CC[C@@H](O)C[C@@H](O)CC(=O)O[C@H]1C)C[C@H](O)[C@H]2C(=O)O (stereo in doubt)	0 (no)
Cc1cccc2sc(N)nc12	0 (no)
O=C(O)CCC(=O)c1ccc(-c2ccccc2)cc1	0 (no)
CC(C)C(O)C(C)(C)CO (stereo unspecified)	0 (no)
CC(=O)OC(C)C[N+](C)(C)C (stereo unspecified)	0 (no)
CSSc1ccoc1C	0 (no)
Cc1ccc(NC(=O)N(C)C)cc1NC(=O)N(C)C	0 (no)
C1=CCC2CC=CC2C1 (stereo unspecified)	0 (no)
O=[N+]([O-])c1ccc2ncccc2c1	0 (no)
CCN(CC)CCOc1ccccc1C(=O)CCc1ccccc1	0 (no)
